# procedure details: log P (n-octanol/water partition coefficient)
# Format: physicochemical
# run parameters: active ingredient of Example 9
# Method: In fact, cannabinoids are highly lipophilic molecules (log P 6-7) with very low water solubility (2-10 µg / ml). The log P is the decimal logarithm of the n-octanol/water partition coefficient. The partition coefficient can be determined experimentally. Values typically refer to room temperature (25° C.). The partition coefficient can also be roughly calculated from the molecular structure.
property measured: logP

[[record]]
compound = "C=C(C)[C@@H]1CCC(C)=C[C@H]1c1c(O)cc(CCCCC)cc1O [CBD]"
property_measured = "logP"
result = "~6.1"


Where do the numbers come from? From patent US20230172873A1.
